Tested on: YAP-dependent transcription in SF268-MCAT_Luc_dox-i-shYAPLevy (Clone 13) cells
assay-notes: YAP reporter gene activity assay (MCAT-Luc), SF268
Type: cell-based
stated-conditions: Homo sapiens, SF-268; SF268 MCAT_Luc, 24 hrs
Quick list: pIC50 per entry.
Quick note: pIC50 means taking -log10 of the concentration in moles per liter.

Some molecules with known pIC50 results, for comparison:
1) COc1ccc(C(N)=O)c(-c2c(Cl)c(F)cc3c2[C@H](C)[C@@](CN[C@H]2CC[C@H](C(=O)N4CCC(CC5CCN(C(=O)COc6ccc(N7CCC(=O)NC7=O)c(C)c6)CC5)CC4)CC2)(c2ccccc2)O3)c1F (atropisomer, axis not shown)	9.59
2) COc1ccc(C(N)=O)c(-c2c(Cl)c(F)cc3c2[C@H](C)[C@@](CN[C@H]2CC[C@H](C(=O)N4CCC(CC5CCN(C(=O)COc6ccc(C)c(N7CCC(=O)NC7=O)c6)CC5)CC4)CC2)(c2ccccc2)O3)c1F (atropisomer, axis not shown)	9.52
3) CNC(=O)c1cnc(OCCOCCOCCn2cc(-c3cccc(N4CCC(=O)NC4=O)c3)nn2)c(F)c1-c1c(Cl)c(F)cc2c1C[C@](c1ccccc1)([C@@H]1CCCN1)O2 (atropisomer, axis not shown)	5.45

stdin: What measured pIC50 goes with COc1ccc(C(N)=O)c(-c2c(Cl)c(F)cc3c2[C@H](C)[C@@](CN[C@H]2CC[C@H](C(=O)NCCCCCCCNC(=O)COc4ccc(C)c(N5CCC(=O)NC5=O)c4)CC2)(c2ccccc2)O3)c1F (atropisomer, axis not shown) ?
stdout: 8.85

* * *

target-or-system: Avi-humanTEAD4^217-434 / Cy5 labeled humanYAP^60-100 (Homo sapiens (Human))
Sequence (Q15561 217-434): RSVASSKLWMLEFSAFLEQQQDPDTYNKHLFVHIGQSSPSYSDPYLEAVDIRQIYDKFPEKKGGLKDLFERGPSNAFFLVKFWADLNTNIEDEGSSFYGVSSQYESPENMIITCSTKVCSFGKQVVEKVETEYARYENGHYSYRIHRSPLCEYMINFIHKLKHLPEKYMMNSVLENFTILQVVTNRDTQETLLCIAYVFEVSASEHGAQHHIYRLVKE
assay-notes: In-vitro biochemical TR-FRET assay (TEAD4/YAP)
stated-conditions: 1 h at room temperature
Quick list: IC50 per entry.
Number in nM, nothing else.

Some compounds with known IC50 results, for comparison:
1. COc1ccc(C(=O)N2CCC(CC3CCN(C(=O)[C@H]4CC[C@H](NC[C@]5(c6ccccc6)Oc6cc(F)c(Cl)c(-c7c(C(N)=O)ccc(OC)c7F)c6[C@@H]5C)CC4)CC3)CC2)cc1N1CCC(=O)NC1=O (atropisomer, axis not shown)	1.9
2. COc1ccc(C(N)=O)c(-c2c(Cl)c(F)cc3c2[C@H](C)[C@@](CN[C@H]2CC[C@H](C(=O)N4CCC(CN5CCN(C(=O)COc6ccc(C)c(N7CCC(=O)NC7=O)c6)CC5)CC4)CC2)(c2ccccc2)O3)c1F (atropisomer, axis not shown)	1.6
3. COc1ccc(C(=O)N2CCC(CN3CCN(C(=O)[C@H]4CC[C@H](NC[C@]5(c6ccccc6)Oc6cc(F)c(Cl)c(-c7c(C(N)=O)ccc(OC)c7F)c6[C@@H]5C)CC4)CC3)CC2)cc1N1CCC(=O)NC1=O (atropisomer, axis not shown)	1

# input for lookup
stdin: What measured IC50 goes with COc1ccc(C(N)=O)c(-c2c(Cl)c(F)cc3c2[C@H](C)[C@@](CN[C@H]2CC[C@H](C(=O)N4CCC(CC5CCN(C(=O)c6ccc(Cl)c(N7CCC(=O)NC7=O)c6)CC5)CC4)CC2)(c2ccccc2)O3)c1F (atropisomer, axis not shown) ?
stdout: 3.4

* * *

target-or-system: Avi-humanTEAD4^217-434 / Cy5 labeled humanYAP^60-100 (Homo sapiens (Human))
assay-notes: In-vitro biochemical TR-FRET assay (TEAD4/YAP)
stated-conditions: 1 h at room temperature
Quick list: IC50 per entry.

1. COc1ccc(C(N)=O)c(-c2c(Cl)c(F)cc3c2[C@H](C)[C@@](CN[C@H]2CC[C@H](C(=O)N4CCC(OC5CCN(C(=O)COc6cc(-c7scnc7C)ccc6CNC(=O)[C@@H]6C[C@@H](O)CN6C(=O)[C@@H](NC(=O)C6(F)CC6)C(C)(C)C)CC5)CC4)CC2)(c2ccccc2)O3)c1F (atropisomer, axis not shown)	7 nM
2. COc1ccc(C(N)=O)c(-c2c(Cl)c(F)cc3c2[C@H](C)[C@@](CN[C@H]2CC[C@H](C(=O)N4CCC(CC5CCN(C(=O)COc6ccc(C)c(N7CCC(=O)NC7=O)c6)CC5)CC4)CC2)(c2ccccc2)O3)c1F (atropisomer, axis not shown)	1.6 nM
3. COc1ccc(C(=O)N2CCC(C3CCN(CCNC(=O)[C@H]4CC[C@H](NC[C@]5(c6ccccc6)Oc6cc(F)c(Cl)c(-c7c(C(N)=O)ccc(OC)c7F)c6[C@@H]5C)CC4)CC3)CC2)cc1N1CCC(=O)NC1=O (atropisomer, axis not shown)	< 1 nM

# input for lookup
stdin: What measured IC50 goes with COc1ccc(C(N)=O)c(-c2c(Cl)c(F)cc3c2[C@H](C)[C@@](CN[C@H]2CC[C@H](C(=O)O)CC2)(c2ccccc2)O3)c1F (atropisomer, axis not shown) ?
stdout: 2.2 nM
